# Measurement Target: (His)6RORα-LBD269-556 (human) (UniProt P35398)
# Test Name: Biacore SPR competition: free 20-mer peptide inhibits binding of RORα-LBD to the immobilized 24-mer GRIP1 peptide
Where no end group is shown, it is not given here.
Endpoint Label: pIC50
Note on pIC50: it is the negative log10 of concentration, concentration in mol/L.

Data request: Give its pIC50 value. Item: GTSLKEKHKILHRLLQDSSS (not fully specified) [non-biotinylated 20-mer GRIP1 peptide …]
Data returned: 5.52
